Just for reference, PubChem BioAssay (NCI) is where these values come from.

# System: HS 578T breast
# assayProcedure: NCI-60 one-dose screen, 48 h (100 = growth as untreated, 0 = no growth, -100 = all killed)
# assaySetup: 10 µM unless noted
Compounds without any hit were thinned out: in the full panel of roughly 83,000, 20% have a hit.
So basically every entry gets a class from its growth, ranges being interval 1: < 30%; interval 2: ≥ 30% and < 80%; interval 3: ≥ 80%

Would you please look over these solved cases?
CCN1C(=O)N(CC)C2NNC(Sc3c(C(=O)O)c4ccccc4n(CCC(C)C)c3=O)=NC21 (centres undefined): interval 1
Nc1cc2ccccc2c(=O)n1NC(=O)c1ccccc1: interval 3
COc1ccc([C@H]2C(C(=O)c3ccc(Cl)cc3)C3(N[C@@H]2c2ccccc2)C(=O)Nc2ccccc23)cc1 (some centres undefined): interval 2
COc1ccc2c(c1)C(Sc1ccc(Cl)cc1)c1c(nc(N)c(C#N)c1N)O2 (centres undefined): interval 2

## Input Sort into band: N#Cc1ccc(C(=O)NNC(=O)CSc2nc3sc4c(c3c(=O)n2-c2ccc(Cl)cc2)CCCC4)cc1
## Output interval 2

## Input Sort into band: C[C@H](NC(=O)c1ccc2c(-c3ccc(C(F)(F)F)cc3)cccc2c1)c1ccccn1
## Output interval 2

## Input Sort into band: COc1ccc(CCC2NCCc3c(Br)c4c(c(OC)c32)OCO4)cc1 (centres undefined)
## Output interval 1

## Input Sort into band: CCCn1c(NC(=O)c2cccc(C(N)=O)c2)nc2cc(CN3CCCCC3)ccc21
## Output interval 3
